tested on: L1210 leukemia ip in BDF1 mice, survival T/C; test: NCI In Vivo Anticancer Drug Screen. Data for tumor model L1210 Leukemia (intraperitoneal) in B6D2F1 (BDF1) mice; conditions: endpoint: mean survival time; dose: 300.0 mg/kg/injection; schedule: Q01DX001 (ip); vehicle: saline; higher = longer survival
Inconclusive results and toxic doses are left out.
Reported Endpoint: T/C

Observe how each entry below is paired with its result.
> print(dat)
                                   compound        obs.value
1  OC1C2c3ccccc3C(c3ccccc32)C1O (centres undefined)  99 % of control
2  CC/C=C(/C)C(C#N)(C(=O)O)C(C)C (centres undefined)  94 % of control
3  CC1C(=O)C(Br)C2CC(O)CCC2(C)C1C (centres undefined)  89 % of control

Can you share its T/C? I mean this compound: C/C=C/CC1(CC(C)C)C(=O)NC(=S)NC1=O 99 % of control

###

Attribute: T/C
test system: L1210 leukemia ip in BDF1 mice, survival T/C; experiment: NCI In Vivo Anticancer Drug Screen. Data for tumor model L1210 Leukemia (intraperitoneal) in B6D2F1 (BDF1) mice; settings: endpoint: mean survival time; dose: 400.0 mg/kg/injection; schedule: Q01DX009 (ip); vehicle: saline with Tween-80; higher = longer survival
Toxic doses and inconclusive results are not listed.

Observe how each entry below is paired with its result.
> print(dat)
                                   molecule        obs.value
1  COc1ccc(C2C3C=CC(C3)C2C(=O)O)cc1 (stereo not drawn)  95 % of control
2     c1cc(C2CCCCC2)ccc1-c1ccc(C2CCCCC2)cc1  97 % of control
3              CCCCCCCCCCCCCCCCS(=O)(=O)CCO  92 % of control

Can you share its T/C? I mean this molecule: O=C(CCC(C(=O)c1ccccc1)c1ccccc1)c1ccccc1 (stereo not drawn) 88 % of control

Can you share its T/C? I mean this molecule: CCc1noc(CC)c1CC1=C2CCC3(C)CCC(C)(C)CC3C2(C)CCC1=O (stereo not drawn) 90 % of control

Can you share its T/C? I mean this molecule: O=C(O)C(c1cccs1)c1cccs1 105 % of control

###

tested on: L1210 leukemia ip in BDF1 mice, survival T/C; test: NCI In Vivo Anticancer Drug Screen. Data for tumor model L1210 Leukemia (intraperitoneal) in B6D2F1 (BDF1) mice; conditions: endpoint: mean survival time; dose: 100.0 mg/kg/injection; schedule: Q01DX009 (ip); vehicle: Klucel (hydroxypropylcellulose) (HPC); higher = longer survival
Inconclusive results and toxic doses are left out.
Reported Endpoint: T/C

Observe how each entry below is paired with its result.
> print(dat)
                                   compound                             tested.system        obs.value
1  CC1CC(=O)c2ccccc2N1S(C)(=O)=O (configuration not stated)  L1210 leukemia ip in BDF1 mice, survival T/C  95 % of control
2  O=C(c1ccco1)C1Cc2ccccc2C1=O (configuration not stated)  L1210 leukemia ip in BDF1 mice, survival T/C  95 % of control
3         Cc1c(Cl)cccc1NC(=O)Oc1ccc(F)cc1Cl  L1210 leukemia ip in BDF1 mice, survival T/C  94 % of control
4               Cc1c(Cl)cccc1NC(=O)c1ccccc1  L1210 leukemia ip in BDF1 mice, survival T/C  93 % of control
5  C#CC(C)(O)c1ccccc1 (configuration not stated)  L1210 leukemia ip in BDF1 mice, survival T/C  98 % of control

Can you share its T/C? I mean this compound: CCc1ccccc1NC(=O)NCc1ccc(C)c(C)c1 93 % of control

Can you share its T/C? I mean this compound: CCOC(=O)c1ccc(NC(=O)Nc2ccc(F)c([N+](=O)[O-])c2)cc1 95 % of control

Can you share its T/C? I mean this compound: c1ccc(C2OC2c2ccccc2)cc1 (configuration not stated) 98 % of control

Can you share its T/C? I mean this compound: CN(C)C(=O)Oc1c(Cl)cccc1Cl 92 % of control

Can you share its T/C? I mean this compound: O=C(c1ccccc1)c1ccccc1 101 % of control

Can you share its T/C? I mean this compound: O=C1C2C(C(=O)N1c1ccccc1)N2CCO (configuration not stated) 107 % of control

Can you share its T/C? I mean this compound: N#CCCN(CCC#N)c1ccc(C=O)cc1 97 % of control
